Data credit: patent US20260043020A1

Target: trypsin
Experiment: monoclonal phage TRF ELISA
Exercise: state measured trypsin binding signal (FU) for each of the binders provided.
Give bare numbers, in FU.

Sure, the documented trypsin binding signal (FU) for KB_C07 (scFv, V domains shown) VH: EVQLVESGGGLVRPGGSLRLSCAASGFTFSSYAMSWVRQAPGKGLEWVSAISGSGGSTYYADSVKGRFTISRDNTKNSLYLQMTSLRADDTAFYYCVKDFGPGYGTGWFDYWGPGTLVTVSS VL: AVNWYQQLPGKAPKLLIYAAVGCPRILMRCKQDSDCLAGCVCGPNGFCGSASGVSDRFSGSKSGTSASLAISGLRSEDEADYYCASWDDSLRGYVFGTGTKVTVLG is 43300

Now for another entry.
Sure, the documented trypsin binding signal (FU) for KB_A01 (scFv, V domains shown) VH: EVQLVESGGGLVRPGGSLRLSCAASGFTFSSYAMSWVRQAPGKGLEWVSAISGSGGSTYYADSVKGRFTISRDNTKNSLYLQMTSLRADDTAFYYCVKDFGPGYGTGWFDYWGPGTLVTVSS VL: YLNWYQQKPGKAPKLLIYAAEVCPRILMRCKQDSDCLAGCVCGPNGFCGGTSGVPSRFSGSRSGTEFTLTISSLQPEDFATYYCQKVDDYPLTFGGGTKVEIKR is 20200
